- Test system: HCT-116
- assay: NCI tumour cell line growth inhibition, 48 h
Calls of active or inactive are those of the source. No stated cut-off is given here; in the data, active = GI50 up to about 1.1 µM and inactive = higher.
Choose the fitting class; nothing outside T (active), F (inactive) is accepted.

Q: Test call, this compound: CC(C)(C)OP(=O)(OC(C)(C)C)C(O)c1ccc(/C=C(\C#N)C(N)=O)cc1 (stereo not drawn)
Ans: F

Further cases:
Q: Per the assay record, what outcome was assigned to CC(=O)Oc1ccc(CO)cc1OC(C)=O ?
Ans: F

Q: # fetch the recorded call for COc1cc(C(=O)CBr)c(OC)cc1C here
Ans: F

Q: Please let me know the test result on file for Clc1cc(OC23CC4CC(CC(C4)C2)C3)nc(Cl)n1 .
Ans: F

Q: // outcome(item) with item = COc1cc(/C=C\c2ccccc2)cc(OC)c1OC
Ans: F

Q: Call for entry CSc1c(C#N)c(S)n(-c2ccc(Cl)cc2)c(=O)c1C#N :
Ans: F

Q: Identify the outcome logged in this assay for the compound shown: NC(=O)COc1ccccc1
Ans: F
